# Assay protocol: Solubility of crystal form I in different solvents (visual, room temperature)
# Format: physicochemical
# Applied conditions: organic solvent or mixture, thermodynamic from solid, IPA
Property: solubility

> print(dat)
                                   compound         reading
1  Cc1ccc(-c2ncccn2)c(C(=O)N2C3CCC2[C@@H](COc2ccc(F)cn2)CC3)c1 (stereo partly shown) [crystal form I]  10 to 20 mg/mL

* * *

# Assay protocol: Solubility of crystal form I in different solvents (visual, room temperature)
# Format: physicochemical
# Applied conditions: organic solvent or mixture, thermodynamic from solid, THF
Property: solubility

> print(dat)
                                   molecule     reading
1  Cc1ccc(-c2ncccn2)c(C(=O)N2C3CCC2[C@@H](COc2ccc(F)cn2)CC3)c1 (stereo partly shown) [crystal form I]  > 53 mg/mL
